Recorded solubility for the following compounds
Assay: Water solubility in pH 7.4 aqueous solution
Type: physicochemical

# Compound, Recorded Measurement
data = [
    ("CO[C@@H]1O[C@@]2(c3ccc(C(=O)O)cc3)CC[C@H]3CCCC[C@]31OO2 (relative stereo) [MHP-34a]", "~90 mM"),
]

Query: Provide one value: measured solubility of CO[C@H]1O[C@@]2(c3ccc(C(=O)O)cc3)CC[C@H]3CCCC[C@]31OO2 (relative stereo) [MHP-34b]
Reply: ~60 mM

Query: Tell us which solubility value is on record for C[C@H]1[C@@H](OCc2ccc(C(=O)O)cc2)O[C@@H]2O[C@@]3(C)CC[C@H]4[C@H](C)CC[C@@H]1[C@@]24OO3 [artelinic acid, Artelinic acid, reference compound]
Reply: ~2 mM
